system: COLO 205; assay: MTT cell proliferation assay (Table 2); assay type: cell-based, human; details: MTT 48 hr post-treatment, read-out: IC50, Cisplatin (48 hr)
endpoint: pIC50
Friendly reminder that pIC50 comes from taking -log10 of the concentration in mol/L.

Any idea what its pIC50 is? The compound is N.N.[Cl][Pt][Cl] [Cisplatin, reference compound]
4.20
